The following molecules are listed with their measured pIC50 values.
- Test system: THP-1
- EXPERIMENT_DESCRIPTION: Concentration required to inhibit production of Tumor necrosis factor, alpha in LPS-stimulated human monocytic cells (THP-1)
- Type: functional, cell-based
In textbook form, pIC50 equals minus log to base ten of the concentration in mol/L.

Example entries begin here.
SAMPLE_SMILES | OBSERVED
CC[C@@H](C)Nc1nccc(-c2nn3c(c2-c2ccc(F)cc2)OCC3)n1 | 7.10
COC[C@@H](C)Nc1nccc(-c2nn3c(c2-c2ccc(F)cc2)OCC3)n1 | 5.77
Fc1ccc(-c2c(-c3ccnc(Oc4ccccc4)n3)nn3c2OCC3)cc1 | 6.52

Here "Fc1ccc(-c2c(-c3ccncc3)nn3c2OCCC3)cc1" was tested on THP-1, and its pIC50 came to 5.51

Here "Oc1[nH]nc(-c2ccncc2)c1-c1ccc(F)cc1" was tested on THP-1, and its pIC50 came to 5.51
